Target: EGFR L858R (Homo sapiens (Human), UniProt P00533, L858R)
Sequence (P00533 25-1210 L858R): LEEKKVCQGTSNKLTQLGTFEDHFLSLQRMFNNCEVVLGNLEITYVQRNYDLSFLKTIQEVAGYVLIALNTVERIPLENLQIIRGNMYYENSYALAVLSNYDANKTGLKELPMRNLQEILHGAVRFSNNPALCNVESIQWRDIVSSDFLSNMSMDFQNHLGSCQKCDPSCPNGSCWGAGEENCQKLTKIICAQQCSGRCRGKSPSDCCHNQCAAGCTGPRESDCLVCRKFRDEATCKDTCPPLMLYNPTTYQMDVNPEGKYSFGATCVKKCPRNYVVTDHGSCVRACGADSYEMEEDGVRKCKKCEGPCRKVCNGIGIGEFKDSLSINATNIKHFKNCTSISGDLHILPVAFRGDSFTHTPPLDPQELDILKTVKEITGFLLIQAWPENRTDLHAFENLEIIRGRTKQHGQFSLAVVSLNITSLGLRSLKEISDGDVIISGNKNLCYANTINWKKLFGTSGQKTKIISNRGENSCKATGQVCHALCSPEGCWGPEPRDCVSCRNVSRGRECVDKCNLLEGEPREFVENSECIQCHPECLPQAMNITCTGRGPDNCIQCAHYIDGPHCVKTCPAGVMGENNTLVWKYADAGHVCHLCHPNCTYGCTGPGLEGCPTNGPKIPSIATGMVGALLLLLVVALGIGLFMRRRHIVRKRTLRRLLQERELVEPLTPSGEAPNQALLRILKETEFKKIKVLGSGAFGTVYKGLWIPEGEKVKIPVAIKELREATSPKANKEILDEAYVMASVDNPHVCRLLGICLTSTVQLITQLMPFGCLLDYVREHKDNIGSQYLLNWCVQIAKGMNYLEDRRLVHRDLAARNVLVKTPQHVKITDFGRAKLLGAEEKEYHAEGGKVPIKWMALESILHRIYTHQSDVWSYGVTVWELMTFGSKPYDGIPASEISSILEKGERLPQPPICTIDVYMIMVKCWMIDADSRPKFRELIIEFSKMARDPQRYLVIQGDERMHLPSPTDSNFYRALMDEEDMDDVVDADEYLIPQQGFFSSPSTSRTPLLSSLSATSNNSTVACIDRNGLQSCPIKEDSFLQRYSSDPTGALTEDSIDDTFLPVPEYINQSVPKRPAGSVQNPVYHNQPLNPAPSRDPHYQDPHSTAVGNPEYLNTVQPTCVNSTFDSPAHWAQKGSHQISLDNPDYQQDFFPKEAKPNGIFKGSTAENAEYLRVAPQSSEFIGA
Test: HTRF-based EGFR biochemical assay (L858R)
Details: 100 μM ATP, enzyme 0.1 nM
pIC50: −log10 of the molar value. Where a name gives a salt, the structure may show the parent alone.

COMPOUND | ASSAY TARGET | COMPARISON SYMBOL | pIC50
Cc1nc(C(c2cc(F)ccc2O)N2Cc3ccc(-c4ccc(C5CCN(C)CC5)cc4)cc3C2=O)[nH]c1C (stereo not shown) | EGFR L858R (Homo sapiens (Human), UniProt P00533, L858R) | < | 7.00
CN1CCC(c2ccc(-c3ccc4c(c3)C(=O)N(C(c3nc5c(Cl)cccc5[nH]3)c3cc(F)ccc3O)C4)cc2)CC1 (stereo not shown) | EGFR L858R (Homo sapiens (Human), UniProt P00533, L858R) | = | 7.85
CN1CCC(c2ccc(-c3ccc4c(F)cn(C(c5nc6ccccc6[nH]5)c5cc(F)ccc5O)c(=O)c4c3)cc2)CC1 (stereo not shown) | EGFR L858R (Homo sapiens (Human), UniProt P00533, L858R) | = | 8.70
CN(C)CCN(C)c1ccc(-c2ccc3c(c2)C(=O)N(C(c2nc4ccccc4[nH]2)c2cc(F)ccc2O)C3)cc1 (stereo not shown) [Compound 041, hydrochloride] | EGFR L858R (Homo sapiens (Human), UniProt P00533, L858R) | = | 8.30
CN1CCC(c2ccc(-c3cc(F)c4c(=O)n(C(c5ccccc5)c5nc6ccccc6[nH]5)ccc4c3)cc2)CC1 (stereo not shown) [Compound 064, dihydrochloride] | EGFR L858R (Homo sapiens (Human), UniProt P00533, L858R) | = | 7.51
CN1CCC(c2ccc(-c3ccc4c(c3)C(=O)N(C(c3nc5cc(F)ccc5[nH]3)c3cc(F)ccc3O)C4)cc2)CC1 (stereo not shown) | EGFR L858R (Homo sapiens (Human), UniProt P00533, L858R) | = | 8.40
CN1CCC(c2ccc(-c3ccc4c(c3)C(=O)N(C(c3ccn[nH]3)c3cc(F)ccc3O)C4)cc2)CC1 (stereo not shown) | EGFR L858R (Homo sapiens (Human), UniProt P00533, L858R) | = | 7.49
CN1CCC(c2ccc(-c3ccc4ncn(C(c5cccc(F)c5)c5nc6ccccc6[nH]5)c(=O)c4n3)cc2)CC1 (stereo not shown) [Compound 008, 2,2,2-trifluoroacetate] | EGFR L858R (Homo sapiens (Human), UniProt P00533, L858R) | = | 7.38
CN1CCC(c2ccc(-c3ccc4c(c3)C(=O)N([C@H](c3nc5ccccc5[nH]3)c3cc(F)ccc3O)C4)cc2)CC1 (single isomer, unassigned) [Compound 037] | EGFR L858R (Homo sapiens (Human), UniProt P00533, L858R) | = | 8.85
CN1CCC(c2ccc(-c3ccc4cn(C(c5nc6c(F)cccc6[nH]5)c5cc(F)ccc5O)nc4c3F)cc2)CC1 (stereo not shown) [Compound 101, trifluoroacetate] | EGFR L858R (Homo sapiens (Human), UniProt P00533, L858R) | = | 8.40
CN1CCC(c2ccc(-c3ccc4cn(C(c5nc6ccccc6[nH]5)c5cc(F)ccc5O)nc4c3Cl)cc2)CC1 (stereo not shown) [Compound 092, dihydrochloride] | EGFR L858R (Homo sapiens (Human), UniProt P00533, L858R) | = | 8.40
O=C1c2cc(C#CCN3CCS(=O)(=O)CC3)ccc2CN1C(c1nc2ccccc2[nH]1)c1cc(F)ccc1O (stereo not shown) [Compound 013, hydrochloride] | EGFR L858R (Homo sapiens (Human), UniProt P00533, L858R) | = | 7.66
Cc1c[nH]c(C(c2cccc(F)c2)N2Cc3ccc(-c4ccc(C5CCN(C)CC5)cc4)cc3C2=O)n1 (stereo not shown) | EGFR L858R (Homo sapiens (Human), UniProt P00533, L858R) | < | 7.00
